Provide the reported MIC of each item.
tested on: Escherichia coli BE1121 strain; assay: MIC for Escherichia coli BE1121 strain; assay type: cell-based; settings: Escherichia coli, BE1121STRAIN; BE1121 strain; regular bouillon medium, 37° C. overnight, turbidity; read-out: MIC Escherichia coli BE1121
Give bare numbers, in µg/mL.

The following compounds have reported results that may help.
>>> print(df.to_string())
                                   compound  outcome_measure   unit  numeric_result
0  CC(C)[C@H]1CC[C@H](C)CC1OCC(=O)c1c(O)c2ccccc2oc1=O (stereo in doubt) [B006, 4-hydroxy-3-menthyloxyacetylcoumarin]              MIC  µg/mL               2
1  CCCCC1CCC(C(O)=C2C(=O)N(C(=O)Nc3ccc(F)cc3)c3ccccc32)CC1 (centres unmarked)              MIC  µg/mL             256
2   CCCCCCCCCCSCC(=O)c1c(O)c2cc(F)ccc2oc1=O              MIC  µg/mL               4
3  CCCCCCCCCCOCC(O)=C1C(=O)N(C(=O)Nc2ccc(F)cc2)c2ccccc21              MIC  µg/mL             256
4  CCCCC1CCC(C(O)=C2C(=O)N(C(=O)c3ccccc3)c3ccccc32)CC1 (centres unmarked)              MIC  µg/mL             128
5  CCCCCCCCCC(=O)N1C(=O)C(=C(O)CCCCCCCCC)c2ccccc21              MIC  µg/mL             128
6  CCCCCCCCCC(=O)N1C(=O)C(=C(O)c2ccccc2O)c2ccccc21              MIC  µg/mL             128

Now consider the entry below.
Q: Consider the compound shown here: `CCCCCCCCCCOCC(=O)c1c(O)c2cc(Cl)ccc2oc1=O` What is its recorded MIC?
A: 256

###

Provide the reported MIC of each item.
tested on: Escherichia coli K-12 strain; experiment: MIC for Escherichia coli K-12 strain; type: cell-based; settings: Escherichia coli, K12STRAIN; K-12 strain; regular bouillon medium, 37° C. overnight, turbidity; read-out: MIC Escherichia coli K12
Provide the measurement as a number trailed by its unit.

The following compounds have reported results that may help.
                                   compound     result
0  CCCCCCCCCCSCC(O)=C1C(=O)N(C(=O)Nc2ccccc2)c2ccc(F)cc21  256 µg/mL
1  CCCCC1CCC(C(O)=C2C(=O)N(C(=O)OC(C)(C)C)c3ccc(F)cc32)CC1 (stereo not drawn)  128 µg/mL
2  CCCCNC(=O)N1C(=O)C(=C(O)C2CCC(CCCC)CC2)c2ccccc21 (stereo not drawn)  256 µg/mL
3      CCCCCCCCCCSCC(=O)c1c(O)c2ccccc2oc1=O  256 µg/mL
4  CCCCC1CCC(C(O)=C2C(=O)N(C(=O)c3ccccc3)c3ccccc32)CC1 (stereo not drawn)  128 µg/mL
5  CCCCC1CCC(C(O)=C2C(=O)N(C(=O)Nc3ccccc3)c3ccccc32)CC1 (stereo not drawn)  256 µg/mL

Fill in MIC for each of the 2 compounds listed.
1. CCCCCCCCCC(O)=C1C(=O)N(C(=O)OC(C)(C)C)c2cc(Cl)ccc21
2. CCCCCCCCCCOCC(O)=C1C(=O)N(C(=O)Nc2ccc(F)cc2)c2ccccc21

A:
1. 256 µg/mL
2. 128 µg/mL

Fill in MIC for each of the 5 compounds listed.
1. CCCCCCCCOCC(O)=C1C(=O)N(C(=O)Nc2ccccc2)c2ccccc21
2. CCCCC1CCC(C(O)=C2C(=O)N(C(=O)Nc3ccc(Br)cc3)c3ccccc32)CC1 (stereo not drawn)
3. CCCCC1CCC(C(O)=C2C(=O)N(C(=O)OC(C)(C)C)c3ccccc32)CC1 (stereo not drawn)
4. CCCCCCCCCCOCC(O)=C1C(=O)N(C(=O)Nc2ccccc2)c2ccc(F)cc21
5. CCCCc1ccc(COCC(=O)c2c(O)c3ccccc3oc2=O)cc1

A:
128 µg/mL
256 µg/mL
128 µg/mL
128 µg/mL
256 µg/mL

Fill in MIC for each of the 3 compounds listed.
1. CCCCCCCCCC(O)=C1C(=O)Nc2ccccc21
2. CCCCCCCCCC(O)=C1C(=O)N(C(=O)Nc2ccccc2)c2ccc(Br)cc21
3. CCCCCCCCCCOCC(O)=C1C(=O)N(C(=O)Nc2ccccc2)c2ccc(Br)cc21

A:
1. 256 µg/mL
2. 256 µg/mL
3. 128 µg/mL

Fill in MIC for each of the 2 compounds listed.
1. CCCCC1CCC(C(O)=C2C(=O)N(C(=O)Nc3ccc(F)cc3)c3ccccc32)CC1 (stereo not drawn)
2. CCCCCCCCCC(=O)N1C(=O)/C(=C(\O)c2ccccc2)c2cc(F)ccc21

A:
1. 256 µg/mL
2. 256 µg/mL
